measured_target: human EHMT2 913-1193 (Homo sapiens, UniProt Q96KQ7)
Construct: recombinant purified human EHMT2 913-1193, Viva; purchased Viva
Sequence (Q96KQ7 913-1193): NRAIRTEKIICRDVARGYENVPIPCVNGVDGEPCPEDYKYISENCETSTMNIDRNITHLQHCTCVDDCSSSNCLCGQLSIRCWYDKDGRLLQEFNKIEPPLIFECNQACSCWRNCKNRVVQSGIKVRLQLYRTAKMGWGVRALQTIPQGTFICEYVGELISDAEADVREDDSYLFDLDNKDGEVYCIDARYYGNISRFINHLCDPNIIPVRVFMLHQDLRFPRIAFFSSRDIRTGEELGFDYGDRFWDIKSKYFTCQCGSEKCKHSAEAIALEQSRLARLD
protocol_notes: EHMT2 enzyme assay on histone peptide substrate (EHMT2 PEP)
Assay type: biochemical
assay_setup: Table II; read-out: EHMT2 PEP (IC50 μM)
Experimental: Recombinant purified human EHMT2 913-1193 (55 μM) synthesized by Viva was used for all experiments. Biotinylated histone peptides were synthesized by Biopeptide and HPLC-purified to >95% purity. […] 384-well Flashplates and 96-well filter binding plates were read on a TopCount microplate reader (PerkinElmer). […]
quantity_measured: IC50

molecule="COc1ccc(NCCCN2CCCC2)cc1Nc1nccc(NCC2CCOCC2)n1 [Compound 228]" quantity_measured=IC50 reported_result="> 10 µM"
molecule="COc1ccc(Nc2nccc(NCC3CCNCC3)n2)cc1CCNCC1CCCC1 [Compound 17]" quantity_measured=IC50 reported_result="0.1 to 1 µM"
molecule="CNc1cc(C)nc(Nc2ccc(OC)c(OCCCN3CCCC3)c2)n1 [Compound 205]" quantity_measured=IC50 reported_result="< 0.1 µM"
molecule="COc1ccc(Nc2cccc(NC3CCC3)n2)cc1OCCCN1CCCC1 [Compound 35]" quantity_measured=IC50 reported_result="0.1 to 1 µM"
molecule="CC(=O)N1CCC(CNc2ccnc(Nc3cccc(NC(=O)c4ccc5c(c4)CC(=O)N5)c3)n2)CC1 [Compound 115]" quantity_measured=IC50 reported_result="> 10 µM"
molecule="COc1ccc(Nc2ccnc(NCC3CCN(C(C)=O)CC3)n2)cc1OCCCN1CCCC1 [Compound 216]" quantity_measured=IC50 reported_result="0.1 to 1 µM"
molecule="CCCCNc1nccc(NCC2CCOC2)n1 (stereo not drawn) [Compound 62]" quantity_measured=IC50 reported_result="> 10 µM"
molecule="COc1ccc(Nc2nccc(NCCc3cccnc3)n2)cc1OCCCN1CCCC1 [Compound 37]" quantity_measured=IC50 reported_result="0.1 to 1 µM"
molecule="COc1ccc(Nc2nccc(C)n2)cc1OCCCN1CCCC1 [Compound 174]" quantity_measured=IC50 reported_result="> 10 µM"
